Tested on: Staphylococcus aureus ATCC 25923
Type: cell-based
Test Settings: ATCC 25923
Square brackets hold non-standard residues; d marks the D form. Peptide text beside a SMILES is read from it.
Parameter Measured: MIC S. aureus (µg/mL)
Express your answer in µg/mL, writing the number without its unit.

Inquiry: # query: MIC S. aureus of entry N=C(N)NCCC[C@@H](N)C(=O)N[C@H](Cc1c[nH]c2ccccc12)C(=O)N[C@@H](Cc1c[nH]c2ccccc12)C(=O)N[C@@H](CCCNC(=N)N)C(=O)N[C@@H](Cc1ccc(O)cc1)C(=O)N[C@H](Cc1c[nH]c2ccccc12)C(=O)N[C@H](CCCNC(=N)N)C(N)=O [arg-trp-TRP-ARG-TYR-trp-arg-CONH2] (H-[dR][dW]WRY[dW][dR]-NH2)
Reply text: 5

* * *

System: Staphylococcus aureus ATCC 25923
Assay type: cell-based
Test Settings: ATCC 25923
Peptide text beside a SMILES is read from it. * marks the point of attachment. Acm = CC(=O)NC*
Parameter Measured: MIC S. aureus (µg/mL)
I only need the number, in µg/mL, no unit after it.

Inquiry: Need MIC S. aureus, item CSCC[C@H](NC(=O)[C@H](CCC(=O)O)NC(=O)[C@H](Cc1c[nH]c2ccccc12)NC(=O)[C@H](CCC(N)=O)NC(=O)[C@H](Cc1c[nH]c2ccccc12)NC(=O)[C@H](CCCNC(=N)N)NC(=O)[C@H](CC(C)C)NC(=O)[C@H](CSCNC(C)=O)NC(=O)[C@H](CCCCN)NC(=O)[C@@H](N)CCC(=O)O)C(=O)N[C@@H](CCCNC(=N)N)C(=O)N[C@@H](CCCCN)C(=O)N[C@H](C(=O)NCC(=O)NCC(=O)O)C(C)C [LFM W8] (H-EKC(Acm)LRWQWEMRKVGG-OH)
Reply text: 1000

* * *

Test system: human red blood cells
Procedure Details: Hemolytic assay
Type: cell-based
Test Settings: red cells of human
Ends that are not written are not given here.
Parameter Measured: EC50

Below are worked cases with known answers.
PAWRKAFRKAWRMLKKAA-OH [LFB 14-31A2,6, 10, 17F7K9, 16L14R4]; > 451 µM
PAKRKAFRWAWRMLKKAA-OH [LFB 14-31A2,6, 10, 17F7K3, 16L14R4]; > 451 µM
PAWRKARRWARRMKKLAA-OH [LFB 14-31 A2,6, 10, 17R4, 11]; > 444 µM
PAWRKAFRAAARMLKKAA-OH [LFB 14-31A2,6,9, 10, 11, 17F7K16L14R4]; > 489 µM
PAIRKAFRWAIRMLKKAA-OH [LFB 14-31A2,6, 10, 17F7I3, 11K16L14R4]; 413 µM
PAIRKAFRIAIRMLKKAA-OH; > 487 µM

Inquiry: Data request, read-out EC50, for PAWFKARRWAWRMKKLA-OH [LFB 14-30 A2,6, 10, 17]
Reply text: > 454 µM

* * *

System: Escherichia coli ATCC 25922
Type: cell-based
Test Settings: ATCC 25922
Square brackets hold non-standard residues; d marks the D form. Peptide text beside a SMILES is read from it. * marks the point of attachment. Fmoc = O=C(OCC1c2ccccc2-c2ccccc21)*; Acm = CC(=O)NC*
Parameter Measured: MIC E. coli

Worked examples, 3 molecules total:
C[C@@H](NC(=O)[C@H](CCCNC(=N)N)NC(=O)[C@H](N)Cc1ccc(O)cc1)C(=O)N[C@@H](Cc1c[nH]c2ccccc12)C(=O)N[C@H](CCCNC(=N)N)C(=O)N[C@@H](Cc1c[nH]c2ccccc12)C(=O)N[C@H](C)C(=O)N[C@@H](Cc1c[nH]c2ccccc12)C(=O)N[C@H](CCCNC(=N)N)C(=O)N[C@@H](Cc1c[nH]c2ccccc12)C(=O)N[C@H](CCCNC(=N)N)C(N)=O (H-[dY]R[dA]W[dR]W[dA]W[dR]W[dR]-NH2; N-terminus assumed); 7.5 µg/mL
CSCC[C@H](NC(=O)[C@H](CCCNC(=N)N)NC(=O)[C@H](Cc1ccc2ccccc2c1)NC(=O)[C@H](CCC(N)=O)NC(=O)[C@H](Cc1ccc2ccccc2c1)NC(=O)[C@H](CCCNC(=N)N)NC(=O)[C@H](CCCNC(=N)N)NC(=O)[C@H](CSCNC(C)=O)NC(=O)[C@H](CCCCN)NC(=O)[C@@H](N)Cc1ccccc1)C(=O)N[C@@H](CCCCN)C(=O)N[C@@H](CCCCN)C(=O)N[C@@H](CC(C)C)C(=O)NCC(=O)N[C@@H](C)C(=O)O [LFB Nal6, 8]; 4.8 µM
CSCC[C@H](NC(=O)[C@H](CCCNC(=N)N)NC(=O)[C@H](Cc1c[nH]c2ccccc12)NC(=O)[C@H](CCC(N)=O)NC(=O)[C@H](Cc1ccc2ccccc2c1)NC(=O)[C@H](CCCNC(=N)N)NC(=O)[C@H](CCCNC(=N)N)NC(=O)[C@H](CSCNC(C)=O)NC(=O)[C@H](CCCCN)NC(=O)[C@@H](N)Cc1ccccc1)C(=O)N[C@@H](CCCCN)C(=O)N[C@@H](CCCCN)C(=O)N[C@@H](CC(C)C)C(=O)NCC(=O)N[C@@H](C)C(=O)O [LFB Nal6]; 20 µg/mL

Inquiry: Form field: reported MIC E. coli of CSCC[C@H](NC(=O)[C@H](CCCNC(=N)N)NC(=O)[C@H](Cc1c[nH]c2ccccc12)NC(=O)[C@H](CCC(N)=O)NC(=O)[C@H](Cc1c[nH]c2ccccc12)NC(=O)[C@H](CCCNC(=N)N)NC(=O)[C@H](CC(C)C)NC(=O)[C@H](CSCNC(C)=O)NC(=O)[C@H](CCCCN)NC(=O)[C@@H](N)CCC(=O)O)C(=O)N[C@@H](CCCNC(=N)N)C(=O)N[C@@H](CCCCN)C(=O)N[C@@H](Cc1ccc(O)cc1)C(=O)NCC(=O)NCC(=O)O [LFM R9 W8 Y13] (H-EKC(Acm)LRWQWRMRKYGG-OH; N-terminus and C-terminus assumed)
Reply text: 150 µg/mL

Inquiry: Would you mind telling me what MIC E. coli value was observed for CSCC[C@H](NC(=O)[C@H](CCCNC(=N)N)NC(=O)[C@H](Cc1c[nH]c2ccccc12)NC(=O)[C@H](CCC(N)=O)NC(=O)[C@H](C)NC(=O)[C@H](CCCNC(=N)N)NC(=O)[C@H](CCCNC(=N)N)NC(=O)[C@H](CSCNC(C)=O)NC(=O)[C@H](CCCCN)NC(=O)[C@@H](N)Cc1ccccc1)C(=O)N[C@@H](CCCCN)C(=O)N[C@@H](CCCCN)C(=O)N[C@@H](CC(C)C)C(=O)NCC(=O)N[C@@H](C)C(=O)O [LFB A6] (H-FKC(Acm)RRAQWRMKKLGA-OH; N-terminus assumed) ?
Reply text: >200 µg/mL

Inquiry: If you can, please state the reported MIC E. coli value of CSCC[C@H](NC(=O)[C@H](CCCNC(=N)N)NC(=O)[C@H](Cc1c[nH]c2ccccc12)NC(=O)[C@H](CCC(N)=O)NC(=O)[C@H](Cc1c[nH]c2ccccc12)NC(=O)[C@H](CCCNC(=N)N)NC(=O)[C@H](CCCNC(=N)N)NC(=O)[C@H](CSCNC(C)=O)NC(=O)[C@H](CCCCN)NC(=O)[C@@H](N)Cc1ccccc1)C(=O)N[C@@H](C)C(=O)N[C@@H](CCCCN)C(=O)N[C@@H](CC(C)C)C(=O)NCC(=O)N[C@@H](C)C(=O)O [LFB A11] (H-FKC(Acm)RRWQWRMAKLGA-OH) .
Reply text: 70 µg/mL

Inquiry: Please give the measured MIC E. coli for this molecule: CSCC[C@H](NC(=O)[C@H](CCCNC(=N)N)NC(=O)[C@H](Cc1c[nH]c2ccccc12)NC(=O)[C@H](C)NC(=O)[C@H](Cc1c[nH]c2ccccc12)NC(=O)[C@H](CCCNC(=N)N)NC(=O)[C@H](CCCNC(=N)N)NC(=O)[C@H](C)NC(=O)[C@H](CCCCN)NC(=O)[C@H](Cc1ccccc1)NC(=O)[C@H](Cc1c[nH]c2ccccc12)NC(=O)[C@H](C)NC(=O)[C@@H]1CCCN1)C(=O)N[C@@H](CCCCN)C(=O)N[C@@H](CCCCN)C(=O)N[C@@H](CC(C)C)C(=O)N[C@@H](C)C(=O)N[C@@H](C)C(=O)O [LFB 14-31 A2,6, 10, 17]
Reply text: 20 µg/mL

Inquiry: What value of MIC E. coli has been recorded for this entry: CSCC[C@H](NC(=O)[C@H](CCCNC(=N)N)NC(=O)[C@H](Cc1c[nH]c2ccccc12)NC(=O)[C@H](CCC(N)=O)NC(=O)[C@H](Cc1c[nH]c2ccccc12)NC(=O)[C@H](CCCNC(=N)N)NC(=O)[C@H](CCCNC(=N)N)NC(=O)OCC1c2ccccc2-c2ccccc21)C(=O)N[C@@H](CCCCN)C(=O)N[C@@H](CCCCN)C(=O)N[C@@H](CC(C)C)C(=O)O [LFB 20-29 FMOC] (Fmoc-RRWQWRMKKL-OH)
Reply text: 5 µg/mL

Inquiry: # input molecule: CC(=O)NCSC[C@H](NC(=O)[C@H](CCCCN)NC(=O)[C@@H](N)Cc1ccccc1)C(=O)N[C@@H](Cc1c[nH]c2ccccc12)C(=O)N[C@@H](CCCNC(=N)N)C(=O)N[C@@H](Cc1c[nH]c2ccccc12)C(=O)N[C@@H](CCC(N)=O)C(=O)N[C@@H](Cc1c[nH]c2ccccc12)C(=O)N[C@@H](CCCNC(=N)N)C(=O)N[C@@H](Cc1c[nH]c2ccccc12)C(=O)N[C@@H](CCCCN)C(=O)N[C@@H](CCCCN)C(=O)N[C@@H](CC(C)C)C(=O)NCC(=O)N[C@@H](C)C(=O)O [LFB W4, 10] (H-FKC(Acm)WRWQWRWKKLGA-OH) ; wanted: its MIC E. coli
Reply text: 5 µg/mL
